target: Gastrin/cholecystokinin type B receptor (Homo sapiens, UniProt P32239); assay: Displacement of [125I]CCK-26-33 from CCK2R-MOPR coexpressed in CHO cells; type: cell-based
Sequence (P32239 whole entry): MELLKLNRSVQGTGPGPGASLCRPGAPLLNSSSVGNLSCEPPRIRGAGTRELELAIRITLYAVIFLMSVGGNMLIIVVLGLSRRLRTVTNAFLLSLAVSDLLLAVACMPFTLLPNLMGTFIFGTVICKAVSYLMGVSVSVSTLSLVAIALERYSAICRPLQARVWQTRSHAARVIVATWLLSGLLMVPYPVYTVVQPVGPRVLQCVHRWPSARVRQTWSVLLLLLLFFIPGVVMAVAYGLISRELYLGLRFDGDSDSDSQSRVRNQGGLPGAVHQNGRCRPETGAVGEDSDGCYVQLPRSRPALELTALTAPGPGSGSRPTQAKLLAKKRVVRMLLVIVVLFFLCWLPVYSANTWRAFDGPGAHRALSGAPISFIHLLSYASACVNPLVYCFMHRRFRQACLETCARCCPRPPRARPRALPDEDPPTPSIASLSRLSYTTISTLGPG
Listed below: Ki values for each entry.

{"chem-smiles": "CN1C(=O)[C@H](NC(=O)Nc2cccc(OCCNC(=O)COCC(=O)NCCCCCCNC(=O)COCC(=O)N[C@H]3CC[C@@]4(O)[C@H]5Cc6cc(O)cc7c6[C@@]4(CCN5C)[C@H]3O7)c2)N=C(c2ccccc2)c2ccccc21", "Ki [nM]": 77}
{"chem-smiles": "CN1C(=O)[C@H](NC(=O)Nc2cccc(OCCNC(=O)COCC(=O)N[C@H]3CC[C@@]4(O)[C@H]5Cc6cc(O)cc7c6[C@@]4(CCN5C)[C@H]3O7)c2)N=C(c2ccccc2)c2ccccc21", "Ki [nM]": 210}
{"chem-smiles": "CN1C(=O)[C@H](NC(=O)Nc2cccc(OCCNC(=O)COCC(=O)NNC(=O)COCC(=O)N[C@H]3CC[C@@]4(O)[C@H]5Cc6cc(O)cc7c6[C@@]4(CCN5C)[C@H]3O7)c2)N=C(c2ccccc2)c2ccccc21", "Ki [nM]": 57}
{"chem-smiles": "CN1C(=O)[C@H](NC(=O)Nc2cccc(OCCNC(=O)COCC(=O)NCCNC(=O)COCC(=O)N[C@H]3CC[C@@]4(O)[C@H]5Cc6cc(O)cc7c6[C@@]4(CCN5C)[C@H]3O7)c2)N=C(c2ccccc2)c2ccccc21", "Ki [nM]": 33}

----------
Bmax overview
target: Gastrin/cholecystokinin type B receptor (Homo sapiens) (UniProt P32239); test: Binding affinity to CCK2R-MOPR coexpressed in CHO cells assessed per mg of protein by [125I] CCK-26-33 displacement assay; type: cell-based

{"chem-smiles": "Cc1cccc(NC(=O)N[C@@H]2N=C(c3ccccc3)c3ccccc3N(C)C2=O)c1", "Bmax (pmol)": 9.1}
{"chem-smiles": "CN1C(=O)[C@H](NC(=O)Nc2cccc(OCCNC(=O)COCC(=O)NCCNC(=O)COCC(=O)N[C@H]3CC[C@@]4(O)[C@H]5Cc6cc(O)cc7c6[C@@]4(CCN5C)[C@H]3O7)c2)N=C(c2ccccc2)c2ccccc21", "Bmax (pmol)": 12.4}
{"chem-smiles": "CNC(=O)COCC(=O)NCCCCCCNC(=O)COCC(=O)NCCOc1cccc(NC(=O)N[C@@H]2N=C(c3ccccc3)c3ccccc3N(C)C2=O)c1", "Bmax (pmol)": 9.5}
{"chem-smiles": "CN1C(=O)[C@H](NC(=O)Nc2cccc(OCCNC(=O)COCC(=O)N[C@H]3CC[C@@]4(O)[C@H]5Cc6cc(O)cc7c6[C@@]4(CCN5C)[C@H]3O7)c2)N=C(c2ccccc2)c2ccccc21", "Bmax (pmol)": 9.3}
{"chem-smiles": "CN1C(=O)[C@H](NC(=O)Nc2cccc(OCCNC(=O)COCC(=O)NCCCCCCNC(=O)COCC(=O)N[C@H]3CC[C@@]4(O)[C@H]5Cc6cc(O)cc7c6[C@@]4(CCN5C)[C@H]3O7)c2)N=C(c2ccccc2)c2ccccc21", "Bmax (pmol)": 10.9}
{"chem-smiles": "CN1C(=O)[C@H](NC(=O)Nc2cccc(OCCNC(=O)COCC(=O)NNC(=O)COCC(=O)N[C@H]3CC[C@@]4(O)[C@H]5Cc6cc(O)cc7c6[C@@]4(CCN5C)[C@H]3O7)c2)N=C(c2ccccc2)c2ccccc21", "Bmax (pmol)": 9.5}
